Molecular target: T1, mouse MuSK (mouse, UniProt Q61006 22-494, limits assumed)
T1 construct: Coated on ELISA plates or on the Biacore chip; also called full length mouse MuSK; mouse MuSK (in house produced in HEK293 cells)
T1 sequence (looked up): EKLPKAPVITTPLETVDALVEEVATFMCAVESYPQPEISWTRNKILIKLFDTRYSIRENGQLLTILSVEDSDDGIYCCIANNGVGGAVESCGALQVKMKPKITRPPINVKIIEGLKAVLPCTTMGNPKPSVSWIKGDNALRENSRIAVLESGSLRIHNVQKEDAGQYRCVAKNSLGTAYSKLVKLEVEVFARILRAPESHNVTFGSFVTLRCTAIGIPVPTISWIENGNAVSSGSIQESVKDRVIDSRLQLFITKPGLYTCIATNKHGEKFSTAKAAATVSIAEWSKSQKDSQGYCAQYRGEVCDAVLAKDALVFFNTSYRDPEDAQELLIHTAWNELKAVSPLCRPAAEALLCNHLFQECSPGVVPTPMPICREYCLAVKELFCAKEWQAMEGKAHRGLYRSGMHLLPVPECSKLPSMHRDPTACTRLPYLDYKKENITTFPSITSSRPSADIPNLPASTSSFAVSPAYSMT
Experiment: Biacore, MuSK on chip, association pH 7.4, dissociation pH 5.5
Quick reference for R0 among some binders
Provide the reading as a plain figure in RU.

Before answering, review these 3 worked examples.
3B2g2m1 (antibody, human IgG1, V domains shown, human IgG1-LALA backbone; produced in HEK293 cells; also called MuSK agonist antibody 3B2g2m1; MuSK-mAb 3B2g2m1) VH: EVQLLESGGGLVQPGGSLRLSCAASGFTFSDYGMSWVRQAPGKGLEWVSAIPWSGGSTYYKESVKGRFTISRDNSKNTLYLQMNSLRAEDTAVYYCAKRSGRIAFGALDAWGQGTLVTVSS VL: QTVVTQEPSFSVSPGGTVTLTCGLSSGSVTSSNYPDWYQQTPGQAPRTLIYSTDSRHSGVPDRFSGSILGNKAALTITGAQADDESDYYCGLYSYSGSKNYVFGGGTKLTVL: 193
3B2 (antibody, V domains shown, human IgG1 with the LALA mutations (L234A, L235A); produced in HEK293 cells; also called 3B2 mAb; parental 3B2 Ab) VH: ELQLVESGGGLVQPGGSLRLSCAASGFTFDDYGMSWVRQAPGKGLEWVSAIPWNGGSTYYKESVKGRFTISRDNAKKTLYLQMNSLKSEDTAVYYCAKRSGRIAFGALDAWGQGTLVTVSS VL: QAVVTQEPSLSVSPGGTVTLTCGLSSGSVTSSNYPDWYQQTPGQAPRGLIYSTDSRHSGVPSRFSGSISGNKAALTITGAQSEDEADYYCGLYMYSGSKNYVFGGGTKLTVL: 194
3B2g1m1 (antibody, human IgG1, V domains shown, human IgG1-LALA backbone; produced in HEK293 cells) VH: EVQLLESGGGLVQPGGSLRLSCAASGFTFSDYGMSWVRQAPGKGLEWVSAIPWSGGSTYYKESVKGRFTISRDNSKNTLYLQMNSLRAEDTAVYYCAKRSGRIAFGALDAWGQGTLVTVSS VL: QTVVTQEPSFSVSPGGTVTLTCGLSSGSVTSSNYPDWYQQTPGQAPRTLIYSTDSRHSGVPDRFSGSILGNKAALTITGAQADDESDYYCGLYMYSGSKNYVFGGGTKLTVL: 192

Lab note: next binder to report on.
Consider 3B2g1m2 (antibody, human IgG1, V domains shown, human IgG1-LALA backbone; produced in HEK293 cells) VH: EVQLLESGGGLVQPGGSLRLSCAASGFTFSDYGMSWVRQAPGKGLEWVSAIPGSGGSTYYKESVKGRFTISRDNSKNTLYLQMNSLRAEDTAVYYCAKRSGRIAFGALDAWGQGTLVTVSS VL: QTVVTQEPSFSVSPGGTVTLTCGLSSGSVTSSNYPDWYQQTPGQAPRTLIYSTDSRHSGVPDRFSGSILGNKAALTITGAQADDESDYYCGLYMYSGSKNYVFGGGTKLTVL . Its measured R0 is 152
